The reported numbers originate from patent EP4737450A1.

- system under test: plasma kallikrein (PKa) (Homo sapiens)
- Construct: purchased R & D 2497-SE
- Sequence (P03952 391-638 limits assumed): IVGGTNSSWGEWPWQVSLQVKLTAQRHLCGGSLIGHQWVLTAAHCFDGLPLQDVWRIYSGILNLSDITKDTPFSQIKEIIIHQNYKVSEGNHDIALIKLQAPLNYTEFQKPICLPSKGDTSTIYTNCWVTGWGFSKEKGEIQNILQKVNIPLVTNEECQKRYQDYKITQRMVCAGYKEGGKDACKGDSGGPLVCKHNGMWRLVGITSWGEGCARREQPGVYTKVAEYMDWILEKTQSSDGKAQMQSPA
- Sequence (P03952 20-390 partner limits assumed): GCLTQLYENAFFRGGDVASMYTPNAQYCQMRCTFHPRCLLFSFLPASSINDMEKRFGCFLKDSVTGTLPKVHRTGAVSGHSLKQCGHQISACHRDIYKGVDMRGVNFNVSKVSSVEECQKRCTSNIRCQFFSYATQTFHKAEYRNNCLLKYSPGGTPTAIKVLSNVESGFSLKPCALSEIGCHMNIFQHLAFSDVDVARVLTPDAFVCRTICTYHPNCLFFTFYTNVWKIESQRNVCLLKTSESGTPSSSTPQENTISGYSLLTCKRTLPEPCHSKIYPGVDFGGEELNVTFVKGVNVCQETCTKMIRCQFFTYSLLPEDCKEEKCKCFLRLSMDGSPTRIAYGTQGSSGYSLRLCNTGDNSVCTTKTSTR
- protocol summary: Inhibitory activity against plasma kallikrein in vitro (fluorescence intensity enzyme assay, Pro-Phe-Arg-AMC substrate)
- Type: biochemical
- test context: plasma kallikrein enzyme assay, Pro-Phe-Arg-AMC substrate; read-out: PKa IC50
Note to self: use yes only for IC50 readings below 2 nM; a reading exactly at 2 nM still gets no.

In: Determine whether this compound shows IC50 lower than 2 nM (ties excluded): N=C(N)c1ccc(CNC(=O)c2cnn(Cc3ccc(CC4CC4)cc3)c2)c(F)c1 [Compound 270]
Out: yes

In: Determine whether this compound shows IC50 lower than 2 nM (ties excluded): COc1ccc(F)c(CNC(=O)c2cn(Cc3ccc(Cn4cc(F)ccc4=O)cc3)nc2C2CC2(F)F)c1F (stereo not shown) [Compound 218]
Out: no

In: Determine whether this compound shows IC50 lower than 2 nM (ties excluded): CCOc1cc(Cn2cc(C(=O)NCc3ccc(C(=N)N)cc3)cn2)ccc1CC1CC1 [Compound 264]
Out: yes

In: Determine whether this compound shows IC50 lower than 2 nM (ties excluded): O=C(NCc1nccc(NC2CCC2)c1F)c1cn(Cc2ccc(Cn3ccccc3=O)cc2)nc1C1COC1 [Compound 273]
Out: no

In: Determine whether this compound shows IC50 lower than 2 nM (ties excluded): Cc1cn2cncc2c(C)c1CNC(=O)c1cn(Cc2ccc(N3CC4C(C3)C4(F)F)cc2C#N)nc1C(F)(F)F (stereo not shown) [Compound 200]
Out: no

In: Determine whether this compound shows IC50 lower than 2 nM (ties excluded): COCc1nn(Cc2ccc(N3CCOCC3=O)cc2)cc1C(=O)NCc1nccc(OC)c1F [Compound 89]
Out: no

In: Determine whether this compound shows IC50 lower than 2 nM (ties excluded): N=C(N)c1ccc(CNC(=O)c2coc(Cc3cn4cc(C5CC5)ccc4n3)n2)cc1 [Compound 37]
Out: yes

In: Determine whether this compound shows IC50 lower than 2 nM (ties excluded): CNc1ccnc(CNC(=O)c2cn(Cc3ccc(CC4CC4)cc3)nc2C2COC2)c1F [Compound 344]
Out: no
